Assay: in vivo
Design: species or system CF-1 normal mice
Settings: CF-1, mouse, iv, total radioactivity, L. Intestine uptake
REPORTED_PROPERTY: tissue uptake at 1 h (%ID/g)
Kindly provide the numeric value in %ID/g only, without the unit symbol.

// known answers, use as guide
INSERT INTO measurements (molecule, readout_number) VALUES
  ('CC(C)C[C@H](NC(=O)C[C@H](O)[C@H](CC(C)C)NC(=O)[C@H](Cc1c[nH]cn1)NC(=O)CNC(=O)[C@@H](NC(=O)[C@H](C)NC(=O)[C@H](Cc1c[nH]c2ccccc12)NC(=O)[C@H](CCC(N)=O)NC(=O)[C@@H](Cc1ccccc1)NC(=O)CCCCCCCNC(=O)[C@H](CCCCNC(=O)CN1CCN(CC(=O)O)CCN(CC(=O)O)CCN(CC(=O)O)CC1)NC(=O)CCCCCNC(=O)CC[C@H](NC(=O)N[C@@H](CCC(=O)O)C(=O)O)C(=O)O)C(C)C)C(N)=O [DUPA-6-Ahx-Lys(^111In-DOTA)-8-Aoc-RM2, metal not drawn]', 0.49),
  ('CC(C)C[C@H](NC(=O)C[C@H](O)[C@H](CC(C)C)NC(=O)[C@H](Cc1c[nH]cn1)NC(=O)CNC(=O)[C@@H](NC(=O)[C@H](C)NC(=O)[C@H](Cc1c[nH]c2ccccc12)NC(=O)[C@H](CCC(N)=O)NC(=O)[C@@H](Cc1ccccc1)NC(=O)CCCCNC(=O)[C@H](CCCCNC(=O)CN1CCN(CC(=O)O)CCN(CC(=O)O)CCN(CC(=O)O)CC1)NC(=O)CCCCCNC(=O)CC[C@H](NC(=O)N[C@@H](CCC(=O)O)C(=O)O)C(=O)O)C(C)C)C(N)=O [DUPA-6-Ahx-Lys(^111In-DOTA)-5-Ava-RM2, metal not drawn]', 0.12);

Turning now to a further record.
For CC(C)C[C@H](NC(=O)C[C@H](O)[C@H](CC(C)C)NC(=O)[C@H](Cc1c[nH]cn1)NC(=O)CNC(=O)[C@@H](NC(=O)[C@H](C)NC(=O)[C@H](Cc1c[nH]c2ccccc12)NC(=O)[C@H](CCC(N)=O)NC(=O)[C@@H](Cc1ccccc1)NC(=O)c1ccc(NC(=O)[C@H](CCCCNC(=O)CN2CCN(CC(=O)O)CCN(CC(=O)O)CCN(CC(=O)O)CC2)NC(=O)CCCCCNC(=O)CC[C@H](NC(=O)N[C@@H](CCC(=O)O)C(=O)O)C(=O)O)cc1)C(C)C)C(N)=O [DUPA-6-Ahx-Lys(^111In-DOTA)-AMBA-RM2, metal not drawn] , write its tissue uptake at 1 h.
0.09

###

Assay: in vivo
Design: species or system CF-1 normal mice
Details: CF-1, mouse, iv, total radioactivity, Stomach uptake
REPORTED_PROPERTY: tissue uptake at 1 h
Answer with the value and then the unit.

For CC(C)C[C@H](NC(=O)C[C@H](O)[C@H](CC(C)C)NC(=O)[C@H](Cc1c[nH]cn1)NC(=O)CNC(=O)[C@@H](NC(=O)[C@H](C)NC(=O)[C@H](Cc1c[nH]c2ccccc12)NC(=O)[C@H](CCC(N)=O)NC(=O)[C@@H](Cc1ccccc1)NC(=O)CCCCNC(=O)[C@H](CCCCNC(=O)CN1CCN(CC(=O)O)CCN(CC(=O)O)CCN(CC(=O)O)CC1)NC(=O)CCCCCNC(=O)CC[C@H](NC(=O)N[C@@H](CCC(=O)O)C(=O)O)C(=O)O)C(C)C)C(N)=O [DUPA-6-Ahx-Lys(^111In-DOTA)-5-Ava-RM2, metal not drawn] , write its tissue uptake at 1 h.
0.23 %ID/g
